tested on: MDA-MB-468 breast; assay: NCI-60 one-dose screen, 48 h (100 = growth as untreated, 0 = no growth, -100 = all killed); settings: 10 µM unless noted
About 83,000 compounds went through this panel and 20% of them were active in at least one assay; those are over-represented in the sample as a whole.

compound	target	growth [%]
O=C1c2cc3c(cc2-c2c1c1cc(F)c(F)cc1c(=O)n2C[C@H](O)CO)OCO3	MDA-MB-468 breast	-57.2
NC(=S)N/N=C/c1cc(-c2cccc(N)c2)ccn1	MDA-MB-468 breast	-11.8
Cc1cccc(Cl)c1NC(=O)c1cnc(Nc2cc(N3CCOCC3)cc(N3CCOCC3)c2)s1	MDA-MB-468 breast	-8.47
CC(C)C1C2=C(NCCN1C(=O)c1ccncc1)C(C)(C)N(Cc1ccccc1)C2=O (centres undefined)	MDA-MB-468 breast	110
N#Cc1cnc2cc(OC[C@@H](O)CO)c(NC(=O)C3CCCC3)cc2c1Nc1ccc(OCc2cccc(F)c2)c(Cl)c1	MDA-MB-468 breast	-20.9
CCOC(=O)Oc1c(OC)cc(C(=O)O[C@@H]2C[C@@H]3CN4CCc5c([nH]c6cc(OC)ccc56)[C@H]4C[C@@H]3[C@H](C(=O)OC)[C@H]2OC)cc1OC	MDA-MB-468 breast	98.8
CN(C)c1ccc(C2C(C#N)=C(/N=C/c3ccccc3)Oc3c2ccc2ccccc32)cc1 (centres undefined)	MDA-MB-468 breast	86.3
CCS(=O)(=O)c1ncnc2nc[nH]c12	MDA-MB-468 breast	105
COc1ccc(/C=C2\CCCC3=C2N=C2SC=NN2C3c2ccc(OC)c(OC)c2)cc1OC (centres undefined)	MDA-MB-468 breast	14.5

----------
System: MDA-MB-468 breast
Assay: NCI-60 one-dose screen, 48 h (100 = growth as untreated, 0 = no growth, -100 = all killed)
Details: 10 µM unless noted
Procedure: Growth inhibition of the MDA-MB-468 human Breast tumor cell line is measured as a screen for anti-cancer activity. Cells are grown in 96 well plates and exposed to the test compound for 48 hours. Compounds are tested at a single concentration, which is 10^-5 M for most compounds. The reported endpoint is percent growth (GI% or GIPRCNT), where numbers from 0 - 100% represent growth inhibition, and numbers from -100% - 0 represent cell death. […]
About 83,000 compounds went through this panel and 20% of them were active in at least one assay; those are over-represented in the sample as a whole.
Hi, to clarify the labels: rule met covers growth from 50% upward, rule not met covers anything below 50%.

molecule	target	qualitative label
O=C(O/C(=C/c1ccccc1)C(F)(F)F)c1ccccc1	MDA-MB-468 breast	rule met
NCCOCCOc1ccccc1	MDA-MB-468 breast	rule met
COc1ccc(-c2c3c(nc4n[nH]c(-c5ccc(Cl)cc5)c24)-c2ccccc2C(=O)C3=O)cc1	MDA-MB-468 breast	rule not met
COc1ccc(Nc2ccnc(N3CCN(c4ccnc5cc(Cl)ccc45)CC3)n2)cc1	MDA-MB-468 breast	rule not met
CS(=O)(=O)Nc1cccc(-c2ccc3ncnc(Nc4cncc(Cl)c4)c3c2)c1	MDA-MB-468 breast	rule not met
O=[N+]([O-])c1cccc(-c2nnc3c(/C=C/c4ccccc4O)nc4ccccc4n23)c1	MDA-MB-468 breast	rule met
CCCCNCC(O)c1cc2c(Cl)cc(Cl)cc2c2cc(C(F)(F)F)ccc12 (configuration not stated)	MDA-MB-468 breast	rule not met
O=C1CSC(c2ccc(O)cc2)N1c1nnc(Cn2cnnc2)o1 (configuration not stated)	MDA-MB-468 breast	rule not met
O=C(O)c1ccc(-n2cc(CNc3ccc(F)cc3)c(-c3ccc(C(F)(F)F)cc3)n2)cc1	MDA-MB-468 breast	rule met
O=C(COc1ccccc1)N1N=C(c2ccc(Cl)cc2)CC1c1c[nH]c2ccccc12 (configuration not stated)	MDA-MB-468 breast	rule met
COc1ccc(NC2=C(Br)C(=O)C(C)=C(C)C2=O)cc1	MDA-MB-468 breast	rule not met
Brc1ccc(-n2cc(-c3nn[nH]n3)c(-c3cccs3)n2)cc1	MDA-MB-468 breast	rule met
